Data provenance is the supplement of paper PMC10567573.

B1: EPB41L3 (parent)
chain: SMQCKVILLDGSEYTCDVEKRSRG

Variants of: B1
Assay: protein stability index of a GFP-peptide fusion (GPS, HEK-293T) (PSI 1-6); higher = more stable;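 note: lentivirally expressed fusions sorted by FACS into six bins by GFP to DsRed ratio, PSI derived from sequencing read proportions per bin multiplied by bin number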
Conditions: c terminus: a fixed tail appended
Please respond with reported protein stability index for every item in the list.
Could you keep your reply to the number by itself?

Prompt line: Any idea what its protein stability index is? The variant is G24C
Response line: 2.56

Prompt line: Any idea what its protein stability index is? The variant is S1Y
Response line: 1.37

Prompt line: Any idea what its protein stability index is? The variant is L8Y
Response line: 3.13
